biological target: T1, cynomolgus ILT7 (cynomolgus, UniProt P59901 24-499 (human entry)); test: flow cytometry on CynoILT7 CT-125 cells (cynomolgus ILT7), bottom panel, table 'Ec50 (pM)'
T1 construct: also called cyno ILT7; cynomolgus monkey ILT7
T1 sequence (P59901 other isoform, or with tags, fused parts or gaps limits assumed): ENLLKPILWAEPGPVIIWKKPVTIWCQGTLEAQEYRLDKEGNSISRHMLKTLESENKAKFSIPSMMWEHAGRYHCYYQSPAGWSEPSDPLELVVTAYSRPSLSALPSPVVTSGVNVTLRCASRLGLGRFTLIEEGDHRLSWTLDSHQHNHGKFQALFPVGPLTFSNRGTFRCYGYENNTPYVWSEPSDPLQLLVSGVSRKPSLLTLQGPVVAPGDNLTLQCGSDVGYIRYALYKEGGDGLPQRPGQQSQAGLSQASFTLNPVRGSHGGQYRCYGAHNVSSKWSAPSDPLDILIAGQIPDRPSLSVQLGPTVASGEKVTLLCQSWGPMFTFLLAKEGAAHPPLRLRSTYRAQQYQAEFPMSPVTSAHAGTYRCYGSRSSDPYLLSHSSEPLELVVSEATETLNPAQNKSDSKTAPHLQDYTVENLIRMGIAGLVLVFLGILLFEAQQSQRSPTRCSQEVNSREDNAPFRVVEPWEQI
Each item that follows carries a reported EC50.
property label: EC50

INSERT INTO results (binder, property_label, meas_value) VALUES
  ('ILT70080.6 (antibody, V domains shown, Engineered (germlined) variant of ILT70080, tested as IgG1) VH: QVQLVQSGAEVKKPGSSVKVSCKASGDSFRNYAVSWVRQAPGQGLEWMGAMMPSFGTREHSQQFQGRVTLTADESTSTAYMELSSLRSEDTAVYYCAGSRDYNAYHFWTGPPDFWGRGTLVTVSS VL: SYVLTQPPSVSVAPGKTARITCGGDSVGSTSVHWYQQKPGQAPVLVIYYNSDRPSGIPERFSGSNSGNTATLTISRVEAGDEADYYCQVWDTSSDHPEFGGGTKLTVL', 'EC50', '0.428 nM'),
  ('ILT70080.2 (antibody, V domains shown, Engineered (germlined) variant of ILT70080, tested as IgG1) VH: QVQLVQSGAEVKKPGSSVKVSCKASGDSFRNYAVSWVRQAPGQGLEWMGAMMPSFGTREHSQQFQGRVTLSADESTSTAYMELSSLRSEDTAVYYCAGSRDYNAYHFWTGPPDFWGRGTLVTVSS VL: SYVLTQPPSVSVAPGKTARITCGGDSVGSTSVHWYQQKPGQAPVMVMFYNSDRPSGIPERFSGSISGNTATLTISRVEAGDEADYYCQVWDTSSDHPEFGGGTKLTVL', 'EC50', '0.503 nM'),
  ('ILT70080.1 (antibody, V domains shown, Engineered (germlined) variant of ILT70080, tested as IgG1) VH: QVQLVQSGAEVKKPGSSVKVSCKASGDSFRNYAVSWVRQAPGQGLEWMGAMMPSFGTREHSQQFQGRVTLTADESTSTAYMELSSLRSEDTAVYYCAGSRDYNAYHFWTGPPDFWGRGTLVTVSS VL: SYVLTQPPSVSVAPGKTARITCGGDSVGSTSVHWYQQKPGQAPVMVMFYNSDRPSGIPERFSGSISGNTATLTISRVEAGDEADYYCQVWDTSSDHPEFGGGTKLTVL', 'EC50', '0.463 nM'),
  ('ILT70080.3 (antibody, V domains shown, Engineered (germlined) variant of ILT70080, tested as IgG1) VH: QVQLVQSGAEVKAPGTSVKVSCKASGDSFRNYAVSWVRQAPGQGLEWMGAMMPSFGTREHSQQFQGRVTLSADESTSTAYMELSSLRSEDTAVYYCAGSRDYNAYHFWTGPPDFWGRGTLVTVSS VL: SYVLTQPPSVSVAPGKTARITCGGDSVGSTSVHWYQQKPGQAPVMVMFYNSDRPSGIPERFSGSISGNTATLTISRVEAGDEADYYCQVWDTSSDHPEFGGGTKLTVL', 'EC50', '0.467 nM'),
  ('ILT70080.7 (antibody, V domains shown, Engineered (germlined) variant of ILT70080, tested as IgG1) VH: QVQLVQSGAEVKKPGSSVKVSCKASGDSFRNYAVSWVRQAPGQGLEWMGAMMPSFGTREHSQQFQGRVTLTADESTSTAYMELSSLRSEDTAVYYCAGSRDYNAYHFWTGPPDFWGRGTLVTVSS VL: SYVLTQPPSVSVAPGKTARITCGGDSVGSTSVHWYQQKPGQAPVLVMFYNSDRPSGIPERFSGSNSGNTATLTISRVEAGDEADYYCQVWDTSSDHPEFGGGTKLTVL', 'EC50', '0.405 nM'),
  ('ILT70080.4 (antibody, V domains shown, Engineered (germlined) variant of ILT70080, tested as IgG1) VH: QVQLVQSGAEVKAPGTSVKVSCKASGDSFRNYAVSWVRQAPGQGLEWMGAMMPSFGTREHSQQFQGRVTLSADESTSTAYMELSSLRSEDTAVYYCAGSRDYNAYHFWTGPPDFWGRGTLVTVSS VL: SYELTQPPSVSVAPGKTAKISCGGDSVGSTSVHWYQQKPGQAPVMVMFYNSDRPSGIPERFSGSISGNTATLTISRVEAGDEADYYCQVWDTSSDHPEFGGGTKLTVL', 'EC50', '0.597 nM');
